Values compiled from PubChem BioAssay AID1159580.

Test: chemical genetic growth profiling, strain panel (AID 1159580);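 note: tested at 20 µM; growth read once vehicle control cultures reached saturation at 30 °C; 1 = growth at the plate median or of vehicle wells; lower values mean less growth of the strain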
Conditions: S. cerevisiae deletion strains, growth OD, locus YDR335W, strain msn5, stronger effect = lower value
Out of some 5,500 compounds screened, about 2,000 (36%) were called active. Another 18% or so got no clear call; they are omitted. The list shows a part of the results.
Task for the reader: assign each of the following molecules its reported normalized growth.

# normalized growth lookup, item C[C@H]1O[C@H](OC2[C@@H](O)[C@@H](O)C(O)[C@H](O)[C@H]2O)[C@@H](N)C[C@@H]1N=C(N)C(=O)O (stereo partly drawn)
0.975 (inactive)

# normalized growth lookup, item NC(N)=NC(=O)c1nc(Cl)c(N)nc1N
1.01 (inactive)

# normalized growth lookup, item CC/C(=C(/CC)c1ccc(O)cc1)c1ccc(O)cc1
1.02 (inactive)

# normalized growth lookup, item CCC(c1ccc(O)cc1)C(CC)c1ccc(O)cc1 (stereo not drawn)
0.938 (inactive)

# normalized growth lookup, item CCCC(C)(COC(N)=O)COC(=O)NC(C)C (stereo not drawn)
0.989 (inactive)

# normalized growth lookup, item C=CC1C2=CCOC(=O)C2=COC1OC1OC(CO)C(O)C(O)C1O (stereo not drawn)
1.02 (inactive)

# normalized growth lookup, item COc1cc(OC)c2c(=O)c(OC)c(-c3ccc(OC)c(OC)c3)oc2c1
1.03 (inactive)

# normalized growth lookup, item C[C@]12C=CC(=O)C=C1CCC1C2[C@@H](O)C[C@@]2(C)C1CC[C@]2(O)C(=O)COP(=O)(O)O (stereo partly drawn)
0.998 (inactive)

# normalized growth lookup, item COC(=O)c1c(C)cc(O)cc1O
1.01 (inactive)

# normalized growth lookup, item COC1=CC(=O)C(C(=O)c2ccccc2)=CC1=O
0.97 (inactive)

# normalized growth lookup, item CCC(N)C(O)c1ccc(O)c(O)c1 (stereo not drawn)
0.993 (inactive)

# normalized growth lookup, item CCOC(=O)c1c(C)cc(O)cc1O
0.935 (inactive)

# normalized growth lookup, item CCOC(=O)c1c(C)cc(OC)cc1O
0.991 (inactive)

# normalized growth lookup, item CCC(=O)c1c(O)cc(O)cc1O
0.986 (inactive)

# normalized growth lookup, item COC1=CC(=O)C(O)=C/C1=C\C=C\c1ccccc1
0.0631 (active)

# normalized growth lookup, item CCCCCCC(C)OC(=O)COc1ccc(Cl)cc1Cl (stereo not drawn)
0.994 (inactive)

# normalized growth lookup, item Cc1cc(OC(=O)c2c(C)cc(O)cc2O)cc(O)c1C(=O)O
1.01 (inactive)

# normalized growth lookup, item NC(=O)c1ncn([C@@H]2O[C@H](CO)[C@@H](O)[C@H]2O)n1
0.991 (inactive)

----------
Assay: chemical genetic growth profiling, strain panel (AID 1159580)
Settings: S. cerevisiae deletion strains, growth OD, locus YDL192W, strain arf1, stronger effect = lower value
Out of some 5,500 compounds screened, about 2,000 (36%) were called active. Roughly 18% stayed inconclusive and do not appear here. This is one part of the list.
Task for the reader: assign each of the following compounds its reported normalized growth.
Answer with the value's number alone.

# normalized growth lookup, item CC1(C)C(=O)C=C[C@@]2(C)C1C[C@@H](O)[C@]1(C)C2CC[C@@]2(C)[C@H](c3ccoc3)OC(=O)[C@H]3O[C@]321 (stereo partly specified)
0.979

# normalized growth lookup, item NC(=O)CN1CCCC1=O
1.01

# normalized growth lookup, item CCc1cccc(CC)c1N(COC)C(=O)CCl
1.03

# normalized growth lookup, item CC1(C)C=CC(=O)[C@@]2(C)C1CC(=O)[C@]1(C)C2CC[C@@]2(C)[C@H](c3ccoc3)OC(=O)C3OC321 (stereo partly specified)
0.94

# normalized growth lookup, item CCC/C=C1\OC(=O)C2=C1CCC=C2
0.972

# normalized growth lookup, item CN[C@@H]1C(O)[C@@H](O[C@@H]2[C@@H](O)[C@H](O[C@H]3OC(CN)=CC[C@H]3N)[C@@H](N)C[C@H]2N)OC[C@]1(C)O (stereo partly specified)
0.995

# normalized growth lookup, item CNC(C)C(O)c1ccccc1 (stereo unspecified)
1.03

# normalized growth lookup, item COc1cccc2c(C)cc(=O)[nH]c12
0.887

# normalized growth lookup, item C[C@@H]([C@H](O)c1ccccc1)N(C)C
1.02

# normalized growth lookup, item CN1C(C)(C)CCCC1(C)C
0.978

# normalized growth lookup, item NC(=O)NCC(N)C(=O)O (stereo unspecified)
1

----------
Experiment: chemical genetic growth profiling, strain panel (AID 1159580)
Conditions: S. cerevisiae deletion strains, growth OD, locus YAL021C, strain ccr4, stronger effect = lower value
The campaign covered roughly 5,500 compounds. About 2,000 (36%) were called active. Not shown: some 18% with an inconclusive outcome. Some of the results follow.
Friendly reminder: normalized growth below 1 is MET, at or above is NOT MET.

In plain terms, does CCCCCCCCCCCC1=C(O)C(=O)C=C(O)C1=O come in under 1 for normalized growth?
MET

In plain terms, does COc1ccc2c(c1)CCC1C2CCC2(C)C1C[C@@H](O)C2O (stereo partly specified) come in under 1 for normalized growth?
MET

In plain terms, does O=c1c(O)c(-c2ccc(O)c(O)c2)oc2cc(O)cc(O)c12 come in under 1 for normalized growth?
MET

In plain terms, does C=C(C)[C@H]1COc2cc3oc(=O)ccc3cc2O1 come in under 1 for normalized growth?
MET

In plain terms, does O=C1[O][Bi][O]c2ccccc21 come in under 1 for normalized growth?
NOT MET

----------
Test: chemical genetic growth profiling, strain panel (AID 1159580);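 note: tested at 20 µM; growth read once vehicle control cultures reached saturation at 30 °C; 1 = growth at the plate median or of vehicle wells; lower values mean less growth of the strain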
Conditions: S. cerevisiae deletion strains, growth OD, locus YFL029C, strain CAK1, stronger effect = lower value
Out of some 5,500 compounds screened, about 2,000 (36%) were called active. Roughly 18% stayed inconclusive and do not appear here. The list shows a part of the results.
Quantity Measured: normalized growth
Answer with the value's number alone.

# normalized growth lookup, item Cc1cc(Cl)ccc1NNC(=O)c1sccc1Br
0.921

# normalized growth lookup, item Oc1c(Cl)cc(Cl)cc1C=Nc1ccc(Sc2ccccc2)nc1Sc1ccccc1
0.943

# normalized growth lookup, item O=C1Nc2ccccc2/C1=C\c1ccc(Cl)cc1
0.95

# normalized growth lookup, item O=C1Nc2ccccc2/C1=C/c1ccc(Oc2ccccc2)nc1
0.975

# normalized growth lookup, item Cc1cc(Oc2ccc(C(F)(F)F)cc2NS(C)(=O)=O)cc(C)c1Cl
0.981

# normalized growth lookup, item COc1ccc(/C=C2/C(=O)Nc3ccccc32)cc1
0.879

# normalized growth lookup, item Oc1c(Br)cc(Br)cc1C=Nc1ccc(Sc2ccccc2)nc1Sc1ccccc1
0.937

----------
Task for the reader: assign each of the following compounds its reported normalized growth.
Assay: chemical genetic growth profiling, strain panel (AID 1159580);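 note: tested at 20 µM; growth read once vehicle control cultures reached saturation at 30 °C; 1 = growth at the plate median or of vehicle wells; lower values mean less growth of the strain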
Conditions: S. cerevisiae deletion strains, growth OD, locus YNL307C, strain MCK1 (second series), stronger effect = lower value
Among all 5,500 compounds or so, about 2,000 (36%) were called active. Inconclusive results (about 18%) are left out. The list shows a part of the results.
Answer with the value's number alone.

# normalized growth lookup, item O/N=C(/c1ccc(Cl)cc1)c1cc2ccccc2o1
0.902

# normalized growth lookup, item O=[N+]([O-])c1cc(Cl)cc([N+](=O)[O-])c1Nc1ccccc1
0.943

# normalized growth lookup, item Cc1c(C)c(C)c(C(O)c2ccccc2)c(C)c1C (centres undefined)
0.785

# normalized growth lookup, item OC(COc1ccc(F)cc1)(c1ccccc1)c1ccccc1
0.961

----------
Assay: chemical genetic growth profiling, strain panel (AID 1159580);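 note: tested at 20 µM; growth read once vehicle control cultures reached saturation at 30 °C; 1 = growth at the plate median or of vehicle wells; lower values mean less growth of the strain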
Details: S. cerevisiae deletion strains, growth OD, locus YDR069C, strain doa4, stronger effect = lower value
Among all 5,500 compounds or so, about 2,000 (36%) were called active. About 18% were inconclusive and are not listed. This is one part of the list.
Quantity Measured: normalized growth
Answer with the value's number alone.

# normalized growth lookup, item CCN[C@@H]1C[C@H](N)[C@@H](O[C@H]2OC(CN)=CC[C@H]2N)[C@H](O)[C@H]1OC1OC[C@](C)(O)[C@H](NC)[C@H]1O (stereo not given in full)
1.01

# normalized growth lookup, item COC1=CC(=O)C(O)=C/C1=C\C=C\c1ccccc1
0.068

# normalized growth lookup, item Oc1ccc2c(c1)OCC1(O)Cc3cc(O)c(O)cc3C21 (stereo not given)
1.01

# normalized growth lookup, item CC(C)(C)NCC(O)c1cc(O)cc(O)c1 (stereo not given)
0.993

# normalized growth lookup, item CN[C@@H]1C(O)[C@@H](O[C@@H]2[C@@H](O)[C@H](O[C@H]3OC(CN)=CC[C@H]3N)[C@@H](N)C[C@H]2N)OC[C@]1(C)O (stereo not given in full)
1.02

# normalized growth lookup, item CC(=O)Oc1ccc2c(c1OC(C)=O)OCC1(O)Cc3c(cc(OC(C)=O)c(OC(C)=O)c3OC(C)=O)C21 (stereo not given)
0.969

# normalized growth lookup, item C=C[C@H]1CN2CC[C@H]1C[C@@H]2[C@@H](OC(=O)OCC)c1ccnc2ccc(OC)cc12
0.979

# normalized growth lookup, item CC1(C)C2CC(=O)[C@]3(C)C(CC[C@@]4(C)[C@H](c5ccoc5)OC(=O)C5OC543)[C@@]2(C)[C@@H](O)C[C@H]1O (stereo not given in full)
0.995

# normalized growth lookup, item CC1(C)C(=O)C=C[C@@]2(C)C1C[C@@H](O)[C@]1(C)C2CC[C@@]2(C)[C@H](c3ccoc3)OC(=O)[C@H]3O[C@]321 (stereo not given in full)
1.01

# normalized growth lookup, item CC1(C)C(=O)C=C[C@@]2(C)C1C=C[C@]1(C)C2CC[C@@]2(C)[C@H](c3ccoc3)OC(=O)C3OC321 (stereo not given in full)
1

# normalized growth lookup, item CCOC(=O)c1c(C)cc(OC)cc1O
0.999

# normalized growth lookup, item CC1(C)C2CC(=O)[C@]3(C)C(CC[C@@]4(C)[C@H](c5ccoc5)OC(=O)[C@H]5O[C@]543)[C@@]2(C)C(=O)C[C@H]1O (stereo not given in full)
0.995

# normalized growth lookup, item Cc1cc(OC(=O)c2c(C)cc(O)cc2O)cc(O)c1C(=O)O
0.966

# normalized growth lookup, item NS(=O)(=O)c1cc(C2(O)NC(=O)c3ccccc32)ccc1Cl (stereo not given)
0.993

# normalized growth lookup, item COC(=O)c1c(C)cc(O)cc1O
1.01
